Molecular target: Cytochrome P450 3A4 (Homo sapiens)
Assay: Cytochrome P450 Family 3 Subfamily A Member 4 (CYP3A4) small molecule antagonists: luciferase reporter qHTS assay (AID 1671201); also: nearly all actives have a fitted effect of over 50% in size
Details: P450-Glo CYP3A4 enzyme, luciferin luminescence, 1 h; series mostly up to 115 µM
Records with an inconclusive call do not appear. Calls of active or inactive are those of the source. Calls follow the shape of the dose curve; as a rule, active = well fitted inhibition curve with a large enough effect in the repeat runs; inconclusive = weak or mixed curves; inactive = no such curve, though single readings can be large or run the other way.
Outcome codes: label 1 = active, label 0 = inactive

INSERT INTO results (molecule, system_tested, category) VALUES
  ('CCCCC(CC)COP(=O)(O)OCC(CC)CCCC (stereo unspecified)', 'Cytochrome P450 3A4 (Homo sapiens)', 'label 0'),
  ('Nc1ccccc1O', 'Cytochrome P450 3A4 (Homo sapiens)', 'label 1'),
  ('Oc1ccc(C2(c3ccc(O)cc3)CC3CC2C2CCCC32)cc1 (stereo unspecified)', 'Cytochrome P450 3A4 (Homo sapiens)', 'label 1'),
  ('CN(C)[C@@H]1C(=O)C(C(N)=O)=C(O)[C@@]2(O)C(=O)C3=C(O)c4c(O)ccc(Cl)c4[C@@H](O)[C@H]3C[C@@H]12', 'Cytochrome P450 3A4 (Homo sapiens)', 'label 0'),
  ('O=C(O)c1c(Cl)cccc1Cl', 'Cytochrome P450 3A4 (Homo sapiens)', 'label 0'),
  ('CCCCC(CC)COC(=O)c1ccccc1C(=O)O (stereo unspecified)', 'Cytochrome P450 3A4 (Homo sapiens)', 'label 0'),
  ('Cc1cccc(S(=O)(=O)O)c1C', 'Cytochrome P450 3A4 (Homo sapiens)', 'label 0'),
  ('Clc1ccc2nsnc2c1NC1=NCCN1', 'Cytochrome P450 3A4 (Homo sapiens)', 'label 0'),
  ('CCCCCOC(=O)CCCC', 'Cytochrome P450 3A4 (Homo sapiens)', 'label 0'),
  ('O=c1cccccc1O', 'Cytochrome P450 3A4 (Homo sapiens)', 'label 0'),
  ('Cc1ccc2oc(CN(Cc3ccccc3)C(=O)Nc3c(F)cc(F)cc3F)c(-c3ccc(Cl)cc3)c2c1', 'Cytochrome P450 3A4 (Homo sapiens)', 'label 1'),
  ('OCCCCCCCCCCCCBr', 'Cytochrome P450 3A4 (Homo sapiens)', 'label 0'),
  ('CSc1cnc(C)cn1', 'Cytochrome P450 3A4 (Homo sapiens)', 'label 0'),
  ('O=C(O)c1ccc(Cl)c(Cl)c1', 'Cytochrome P450 3A4 (Homo sapiens)', 'label 0'),
  ('O=C(c1ccc(F)cc1)C1CCN(CCn2c(=O)[nH]c3ccccc3c2=O)CC1', 'Cytochrome P450 3A4 (Homo sapiens)', 'label 0'),
  ('CCc1cc(Cc2cc(CC)cc(C(C)(C)C)c2O)c(O)c(C(C)(C)C)c1', 'Cytochrome P450 3A4 (Homo sapiens)', 'label 1'),
  ('CCCC/C=C/CCCCO', 'Cytochrome P450 3A4 (Homo sapiens)', 'label 0'),
  ('NC(=O)N1C(=O)C(C(=O)c2cc(Cl)cs2)c2cc(F)c(Cl)cc21 (stereo unspecified)', 'Cytochrome P450 3A4 (Homo sapiens)', 'label 1'),
  ('C/C=C1/C(=O)C[C@H]2[C@@H]3CCC4=CC(=O)CC[C@]4(C)[C@H]3CC[C@]12C', 'Cytochrome P450 3A4 (Homo sapiens)', 'label 0'),
  ('CCCCCCCCNC(C)C(O)c1ccc(SC(C)C)cc1 (stereo unspecified)', 'Cytochrome P450 3A4 (Homo sapiens)', 'label 0'),
  ('NC(=O)NS(=O)(=O)c1ccc(N)cc1', 'Cytochrome P450 3A4 (Homo sapiens)', 'label 0'),
  ('Cc1cc(CCN2CCN(c3nsc4ccccc34)CC2)cc2c1NC(=O)CC2(C)C', 'Cytochrome P450 3A4 (Homo sapiens)', 'label 1'),
  ('C[C@]12CCC(=O)C=C1CC[C@@H]1[C@@H]2[C@@H](O)C[C@@]2(C)[C@H]1CC[C@]2(O)C(=O)COC(=O)CCC(=O)O', 'Cytochrome P450 3A4 (Homo sapiens)', 'label 0'),
  ('CN(C)c1ccc(SC#N)cc1', 'Cytochrome P450 3A4 (Homo sapiens)', 'label 0'),
  ('CCCCCCCCCCCCCCCCCC[N+](C)(C)Cc1ccccc1', 'Cytochrome P450 3A4 (Homo sapiens)', 'label 1'),
  ('N=C1N=C(N)c2ccccc21', 'Cytochrome P450 3A4 (Homo sapiens)', 'label 0');

###

Test: qHTS RealTime-Glo MT Cell Viability Assay in HEK293 cells - 32 hour (AID 1224868); also: nearly all actives have a fitted effect of over 50% in size
Settings: RealTime-Glo luminescence; series mostly up to 76.8 µM
Inconclusive results are not listed. Calls of active or inactive are those of the source. The call rests on the fitted dose curve; in most records, active means well fitted cell-killing curve with a large enough effect in the repeat runs; inconclusive means weak or mixed curves, or effect the other way; inactive means flat fitted curve, though single readings scatter.
Outcome codes: Yes = active, No = inactive

INSERT INTO results (molecule, category) VALUES
  ('NC(=O)N1C(=O)C(C(=O)c2cc(Cl)cs2)c2cc(F)c(Cl)cc21 (stereo not given)', 'No'),
  ('NNc1nc(-c2ccc([N+](=O)[O-])cc2)cs1', 'Yes'),
  ('O=c1[nH]cnc2nc[nH]c12', 'No'),
  ('COC(=O)C1=C(C)NC(C)=C(C(=O)OCCc2ccc(N3CCN(C(c4ccccc4)c4ccccc4)CC3)cc2)C1c1cccc([N+](=O)[O-])c1 (stereo not given)', 'No'),
  ('Cc1cc(O)c(C(C)(C)C)cc1Sc1cc(C(C)(C)C)c(O)cc1C', 'Yes');

###

Experiment: qHTS assay to identify small molecule antagonists of the estrogen receptor alpha (ER-alpha) signaling pathway using the BG1 cell line in the presence of 0.1 nM 17-beta-estradiol - cell viability counter screen (AID 1259241); also: nearly all actives have a fitted effect of over 40% in size
Conditions: VM7Luc4E2 (BG1) viability, CellTiter-Fluor protease, 22 h, 0.1 nM estradiol agonist added; series mostly up to 92.4 µM
Source text: National Center for Advancing Translational Sciences [NCATS] NIH Chemical Genomics Center [NCGC] U.S. Environmental Protection Agency [EPA] National Institutes of Environmental Health Sciences [NIEHS] National Toxicology Program [NTP] U.S. Food and Drug Administration [FDA] Estrogen receptor (ER), a member of the nuclear hormone receptor plays an important role in development, metabolic homeostasis and reproduction. […]
Results filed as inconclusive are left out. Active and inactive are the calls of the source. Calls come from the whole dose curve; as a rule, active = well fitted cell-killing curve with a large enough effect in the repeat runs; inconclusive = weak or mixed curves, or effect the other way; inactive = flat fitted curve, though single readings scatter.
Outcomes: True for active, False for inactive

INSERT INTO measurements (compound_structure_string, category) VALUES
  ('O=C(Nc1cccc(Cl)c1)OCC#CCCl', 'True'),
  ('Nc1ccccc1O', 'True'),
  ('CCCCCCOC(=O)c1ccc(O)cc1', 'False'),
  ('Cc1ccc2oc(CN(Cc3ccccc3)C(=O)Nc3c(F)cc(F)cc3F)c(-c3ccc(Cl)cc3)c2c1', 'False'),
  ('Nc1cc(C(F)(F)F)ccc1S', 'False'),
  ('Cc1ccc(-n2nc(C(C)(C)C)cc2NC(=O)Nc2ccc(OCCN3CCOCC3)c3ccccc23)cc1', 'False'),
  ('CCCC(c1cc(C(C)(C)C)c(O)cc1C)c1cc(C(C)(C)C)c(O)cc1C', 'True');

###

Test: qHTS assay to identify small molecule antagonists of the constitutive androstane receptor (CAR) signaling pathway - cell viability counter screen (AID 1224837); also: nearly all actives have a fitted effect of over 45% in size
Conditions: HepG2-CYP2B6-hCAR viability, CellTiter-Fluor, 23 h, co-treated with 50 nM CITCO; series mostly up to 92.4 µM
Records with an inconclusive call do not appear. Activity calls are given as the source filed them. The call rests on the fitted dose curve; in most records, active means well fitted cell-killing curve with a large enough effect in the repeat runs; inconclusive means weak or mixed curves, or effect the other way; inactive means flat fitted curve, though single readings scatter.
Outcomes: true = active, false = inactive

INSERT INTO measurements (molecule, category) VALUES
  ('O=C(Nc1cccc(Cl)c1)OCC#CCCl', 'true'),
  ('CN(C)[C@@H]1C(=O)C(C(N)=O)=C(O)[C@@]2(O)C(=O)C3=C(O)c4c(O)cccc4C[C@H]3C[C@@H]12', 'false'),
  ('CCCCCCCCOC(=O)c1ccc(O)cc1', 'false'),
  ('Clc1ccc2nsnc2c1NC1=NCCN1', 'false'),
  ('[O-][n+]1ccccc1SSc1cccc[n+]1[O-]', 'true'),
  ('O=C(Oc1ccccc1)c1ccccc1C(=O)Oc1ccccc1', 'false'),
  ('OCc1c[nH]c2ccccc12', 'false'),
  ('CCCCC(CC)COP(=O)(O)OCC(CC)CCCC (configuration not stated)', 'false'),
  ('COc1cc(-c2ccc(N=C=O)c(OC)c2)ccc1N=C=O', 'false'),
  ('O=C(N/N=C/c1ccccc1O)c1ccncc1', 'false'),
  ('CCC1OCC(COc2ccc(Oc3ccccc3)cc2)O1 (configuration not stated)', 'false'),
  ('CC(C)(C)C(=O)OCOC(=O)C1N2C(=O)CC2S(=O)(=O)C1(C)C (configuration not stated)', 'false');

###

Assay: qHTS assay for small molecules that induce genotoxicity in human embryonic kidney cells expressing luciferase-tagged ATAD5 - cell viability (AID 651634); also: nearly all actives have a fitted effect of over 25% in size
Conditions: HEK293T ATAD5-luc cells viability, CellTiter-Fluor, 15.5 h; series mostly up to 83.3 µM
Excerpt: National Center for Advancing Translational Sciences [NCATS] NIH Chemical Genomics Center [NCGC] U.S. Environmental Protection Agency [EPA] National Institutes of Environmental Health Sciences [NIEHS] National Toxicology Program [NTP] U.S. Food and Drug Administration [FDA] Enhanced Level of Genome Instability Gene 1 (ELG1; human ATAD5) protein levels increase in response to various types of DNA damage. […]
Results filed as inconclusive are left out. The source made the active and inactive calls. The call rests on the fitted dose curve.
Possible outcomes: active, inactive

INSERT INTO results (compound, category) VALUES
  ('Oc1ccc(Cl)cc1Sc1cc(Cl)ccc1O', 'active'),
  ('CC(C)c1ccc2c(c1)CC[C@H]1[C@](C)(CN)CCC[C@]21C', 'active'),
  ('Cc1cc(CCN2CCN(c3nsc4ccccc34)CC2)cc2c1NC(=O)CC2(C)C', 'active'),
  ('COc1ccc(-c2ccc3cc(C(=O)O)ccc3c2)cc1C12CC3CC(CC(C3)C1)C2', 'inactive'),
  ('CCCCN(CCCC)C(=O)N(CCCC)CCCC', 'inactive'),
  ('CC[C@H](c1ccc(O)cc1)[C@@H](CC)c1ccc(O)cc1', 'inactive'),
  ('CC(C)CCCCCCCCCCCCCCC(=O)O', 'inactive'),
  ('c1ccc(CSCc2ccccc2)cc1', 'inactive'),
  ('CCOc1ccc2nc3cc(N)ccc3c(N)c2c1', 'inactive'),
  ('Cc1cc(O)c(Cl)c(C)c1Cl', 'active'),
  ('Cc1cc(C2CCCCC2)n(O)c(=O)c1', 'inactive'),
  ('C=C(C)C(=O)OCC[N+](C)(C)C', 'inactive'),
  ('N#CSc1ccc(N)c([N+](=O)[O-])c1', 'active'),
  ('CCCC(c1cc(C(C)(C)C)c(O)cc1C)c1cc(C(C)(C)C)c(O)cc1C', 'active'),
  ('CC(C)(C)CC(C)(C)c1ccc(O)c(Cc2ccc(Cl)cc2Cl)c1', 'active'),
  ('CC(=O)SC[C@@H](Cc1ccccc1)C(=O)NCC(=O)OCc1ccccc1', 'inactive'),
  ('C[C@@H]1C[C@H]2[C@@H]3CCC4=CC(=O)C=C[C@]4(C)[C@@]3(Cl)[C@@H](O)C[C@]2(C)[C@@]1(OC(=O)c1ccco1)C(=O)CCl', 'inactive'),
  ('CN(C)c1ccc(C2(c3ccc(N(C)C)cc3)OC(=O)c3cc(N(C)C)ccc32)cc1', 'inactive'),
  ('CCCC(=O)OC[C@@H](OC(=O)CCC)[C@@H](OC(=O)CCC)[C@H](Cn1c2nc(=O)[nH]c(=O)c-2nc2cc(C)c(C)cc21)OC(=O)CCC', 'inactive'),
  ('O=Cc1cc(O)ccc1Br', 'inactive'),
  ('CCc1cc(SCc2sc(-c3ccc(C(F)(F)F)cc3)nc2CN2CCN(c3ccc(OC)cc3)CC2)ccc1OCC(=O)O', 'active'),
  ('NC(=O)NS(=O)(=O)c1ccc(N)cc1', 'inactive'),
  ('O=C1CCCc2c1cc1ccc3cccc4ccc2c1c34', 'inactive'),
  ('O=S1(=O)CC(Cl)(Cl)C(Cl)(Cl)C1', 'active'),
  ('C[n+]1cc2c3c(ccc2c2ccc4cc5c(cc4c21)OCO5)OCO3', 'active'),
  ('CCc1cc(Cc2cc(CC)c(N)c(CC)c2)cc(CC)c1N', 'inactive'),
  ('CNc1ccc(O)cc1', 'inactive'),
  ('C[C@@H](NCCCc1cccc(C(F)(F)F)c1)c1cccc2ccccc12', 'active'),
  ('CCCCCCCC/C=C\CCCCCCCCOCCO', 'active'),
  ('CCCCCCCCCCCCCCCCCC[N+](C)(C)C', 'active'),
  ('Oc1cccc2cc3cccc(O)c3c(O)c12', 'inactive'),
  ('CCC1OCC(COc2ccc(Oc3ccccc3)cc2)O1 (stereo unspecified)', 'inactive'),
  ('O=C(Nc1cccc(C(F)(F)F)c1)c1cc(Br)cc(Br)c1O', 'active'),
  ('S=c1[nH]c2ccccc2s1', 'inactive'),
  ('CC(C)n1nc(-c2cc3cc(O)ccc3[nH]2)c2c(N)ncnc21', 'active'),
  ('C1CCCC1', 'inactive'),
  ('COc1cc(/C=C/C(=O)O[C@H]2CC[C@]34C[C@]35CC[C@]3(C)[C@@H]([C@H](C)CCC=C(C)C)CC[C@@]3(C)[C@@H]5CC[C@H]4C2(C)C)ccc1O', 'inactive'),
  ('CCCCCOC(=O)CCCC', 'inactive'),
  ('CCN1/C(=C/C=C/c2sc3ccccc3[n+]2CC)Sc2ccccc21', 'active'),
  ('CCCCc1oc2ccc(NS(C)(=O)=O)cc2c1C(=O)c1ccc(OCCCN(CCCC)CCCC)cc1', 'active'),
  ('CCCCCCCCCCC=O', 'inactive'),
  ('CCCCC(CC)COP(=O)(O)OCC(CC)CCCC (stereo unspecified)', 'inactive'),
  ('CCC1=C[C@@H]2CN(C1)Cc1c([nH]c3ccccc13)[C@@](C(=O)OC)(c1cc3c(cc1OC)N(C)[C@H]1[C@@](O)(C(=O)OC)[C@H](OC(C)=O)[C@]4(CC)C=CCN5CC[C@]31[C@@H]54)C2', 'active'),
  ('Cc1c(C)c2c(c(C)c1O)CCC(C)(COc1ccc(CC3SC(=O)NC3=O)cc1)O2 (stereo unspecified)', 'inactive'),
  ('Cc1cccc(S(=O)(=O)O)c1C', 'inactive'),
  ('CCCCC(CC)COC(=O)c1ccccc1C(=O)O (stereo unspecified)', 'inactive');
